- Experimental target: catalytic domain of human Bub1 (amino acids 704-1085) (Homo sapiens)
- Construct: catalytic domain of human Bub1 (amino acids 704-1085); His6 (N); made in house; host or cells: Hi5 insect cells
- Sequence (O43683 704-1085): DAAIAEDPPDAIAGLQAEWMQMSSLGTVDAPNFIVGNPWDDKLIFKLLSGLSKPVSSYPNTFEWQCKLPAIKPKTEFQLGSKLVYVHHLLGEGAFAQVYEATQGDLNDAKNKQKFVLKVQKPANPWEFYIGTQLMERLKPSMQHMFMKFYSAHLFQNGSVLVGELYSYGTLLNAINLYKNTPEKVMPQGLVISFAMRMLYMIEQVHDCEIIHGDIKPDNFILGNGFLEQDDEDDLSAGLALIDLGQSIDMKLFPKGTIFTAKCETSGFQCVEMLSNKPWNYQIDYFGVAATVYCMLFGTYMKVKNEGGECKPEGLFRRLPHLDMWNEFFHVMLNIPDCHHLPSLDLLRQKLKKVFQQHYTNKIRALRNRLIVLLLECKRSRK
- Assay: Bub1 kinase assay (TR-FRET)
- Assay type: biochemical
- Condition description: TR-FRET; ATP 10 μM, peptide substrate 1 μM; 60 min at 22° C.; average or median if tested more than once; read-out: Inhibition of Bub1 kinase IC50
- Protocol: […] In a typical assay 11 different concentrations of each compound (0.1 nM, 0.33 nM, 1.1 nM, 3.8 nM, 13 nM, 44 nM, 0.15 μM, 0.51 μM, 1.7 μM, 5.9 μM and 20 μM) were tested in duplicate within the same microtiter plate. […] Subsequently, the amount of product was evaluated by measurement of the resonance energy transfer from the Eu-chelate-antibody complex recognizing the Phosphoserine residue to the streptavidin-XL665 bound to the biotin moiety of the peptide. […]
Parameter measured: IC50 (nM)

Example results:
Exercise: Which IC50 reading was recorded for the molecule `COc1ccc(C(=O)Nc2cc(-c3[nH]c4c(c3Nc3ccccc3)C(=O)CN(C(=O)OC(C)(C)C)C4)ccn2)cc1F` ?
Key: 38

Exercise: Entry `COc1ccc(C(=O)Nc2cc(-c3c(Nc4ccccc4)c4c(n3C)CN(C(=O)OC(C)(C)C)CC4=O)ccn2)cc1F` has what IC50?
Key: 1050

Exercise: Give its IC50 value. Item: `CC(C)(C)OC(=O)N1CC(=O)c2c([nH]c(-c3ccnc(NC(=O)c4cncs4)c3)c2Nc2ccccc2)C1`
Key: 6

1. N#CCN1CC(=O)c2c([nH]c(-c3ccncc3)c2Nc2ccccc2)C1
2. CC(C)OC(=O)N1CC(=O)c2c([nH]c(-c3ccnc(NC(=O)C(C)(C)F)c3)c2Nc2ccccc2)C1
3. O=C1CN(C(=O)N2CCCC2)Cc2[nH]c(-c3ccncc3)c(Nc3ccccc3)c21
Exercise: // ascending sort on recorded IC50 Order the labels as requested and list them.
Key: 3, 1, 2

----------
- Experimental target: catalytic domain of human Bub1 (amino acids 704-1085) (Homo sapiens)
- Construct: catalytic domain of human Bub1 (amino acids 704-1085); His6 (N); made in house; host or cells: Hi5 insect cells
- Assay: Bub1 kinase assay (TR-FRET)
- Type: biochemical
- Condition description: TR-FRET; ATP 10 μM, peptide substrate 1 μM; 60 min at 22° C.; average or median if tested more than once; read-out: Inhibition of Bub1 kinase IC50
- Protocol: […] In a typical assay 11 different concentrations of each compound (0.1 nM, 0.33 nM, 1.1 nM, 3.8 nM, 13 nM, 44 nM, 0.15 μM, 0.51 μM, 1.7 μM, 5.9 μM and 20 μM) were tested in duplicate within the same microtiter plate. […] Subsequently, the amount of product was evaluated by measurement of the resonance energy transfer from the Eu-chelate-antibody complex recognizing the Phosphoserine residue to the streptavidin-XL665 bound to the biotin moiety of the peptide. […]
pIC50: −log10 of the molar value.
Parameter measured: pIC50

A. COCCOc1cnccc1-c1[nH]c2c(c1Nc1ccccc1)C(=O)CN(C(C)=O)C2
B. CCOC(=O)N1CC(=O)c2c([nH]c(-c3ccnc(NC(C)=O)c3)c2Nc2ccccc2)C1
Exercise: Smaller pIC50 value, A vs B ? Refer to your chosen item by its label in the answer.
Key: A

P. CN(C)S(=O)(=O)N1CC(=O)c2c([nH]c(-c3ccncc3OCC3CC3)c2Nc2ccccc2)C1
Q. COC(=O)N1CC(=O)c2c([nH]c(-c3ccncc3)c2Nc2ccccc2)C1
Exercise: Hey, between P and Q which has a smaller measured pIC50? Pick one and reply with its label.
Key: P
(P: 7.92, Q: 8.22)
